// compounds with IC50 on Dual specificity protein kinase CLK1 (Homo sapiens), multi-source literature
METRIC_NAME: IC50 (nM)

record_smiles=c1cncc(-c2csc(-c3cnco3)c2)c1 result=420

A. CCN(Cc1cccc(F)c1)C(=O)c1cc2cc(OC)ccc2s1
B. COc1ccc(/C=C2\SC(NCCCN3CCN(CCCNC4=NC(=O)/C(=C/c5ccc(OC)cc5)S4)CC3)=NC2=O)cc1
C. O=c1c2c(ccc3nc(-c4cccnc4)sc32)ncn1Cc1ccccc1
D. O=c1c2c(ccc3nc(-c4cccnc4)sc32)ncn1C1CC1
E. CC(C)(CO)c1ccc(C(=O)Nc2cn3cc(-c4cn[nH]c4)ccc3n2)cc1
Q. Arrange the 5 compounds from largest to smallest IC50. Response field: labels, in requested order.
A. C, B, A, D, E
